- Test system: Haemonchus contortus
- Test: Haemonchus contortus-Test (HAEMCO), larval mortality
- Study Conditions: 120 h, read-out: activity (larval mortality)
Measured mortality at 20 ppm, listed per entry.
Lab book: enter the figure in %, no units written.

>>> endpoint_value("Cc1occc1-c1cnc(C(F)(F)CNC(=O)c2ccccc2C(F)(F)F)c(Cl)c1")
90
>>> endpoint_value("O=C(NCC(F)(F)c1ncc(-c2ccc(Cl)nc2)cc1Cl)c1ccccc1C(F)(F)F")
90

Q: Missing value: mortality at 20 ppm, Haemonchus contortus, entry `O=C(NCC(F)(F)c1ncc(-c2cccnc2)cc1Cl)c1ccccc1C(F)(F)F` . Fill in?
Ans: 100

Q: Missing value: mortality at 20 ppm, Haemonchus contortus, entry `O=C(NCC(F)(F)c1ncc(-c2ccncc2)cc1Cl)c1ccccc1C(F)(F)F` . Fill in?
Ans: 90

Q: Missing value: mortality at 20 ppm, Haemonchus contortus, entry `O=C(NCC(F)(F)c1ncc(-c2ccc(C(F)(F)F)nc2)cc1Cl)c1ccccc1C(F)(F)F` . Fill in?
Ans: 90

Q: Missing value: mortality at 20 ppm, Haemonchus contortus, entry `O=C(NCCc1ncc(-n2cccn2)cc1Cl)c1ccccc1C(F)(F)F` . Fill in?
Ans: 100

---

- Tested on: Haemonchus contortus
- Test: Haemonchus contortus-Test (HAEMCO), larval mortality
- Study Conditions: 120 h, read-out: activity (larval mortality)
Measured mortality at 20 ppm, listed per entry.
Lab book: enter the figure in %, no units written.

Previously resolved entries follow.
>>> endpoint_value("O=C(NCCc1ncc(-c2ccc(Cl)nc2)cc1Cl)c1ccccc1C(F)(F)F [Example 6]")
100
>>> endpoint_value("O=C(NCCc1ncc(-n2cncn2)cc1Cl)c1ccccc1C(F)(F)F [Example 5]")
90
>>> endpoint_value("O=C(NCCc1ncc(-c2ccc(C(F)(F)F)nc2)cc1Cl)c1ccccc1C(F)(F)F [Example 7]")
90
>>> endpoint_value("O=C(NCC(F)(F)c1ncc(-n2cc(C(F)(F)F)cn2)cc1Cl)c1ccccc1C(F)(F)F [Example 28]")
100

Q: Any idea what its mortality at 20 ppm is? The compound is O=C(NCC(F)(F)c1ncc(-c2cncc(Cl)c2)cc1Cl)c1ccccc1C(F)(F)F [Example 15]
Ans: 100

Q: Any idea what its mortality at 20 ppm is? The compound is O=C(NCC(F)(F)c1ncc(-c2ccc(F)nc2)cc1Cl)c1ccccc1C(F)(F)F [Example 16]
Ans: 100

Q: Any idea what its mortality at 20 ppm is? The compound is O=C(NCC(F)(F)c1ncc(-c2cncc(F)c2)cc1Cl)c1ccccc1C(F)(F)F [Example 10]
Ans: 100

Q: Any idea what its mortality at 20 ppm is? The compound is O=C(NCCc1ncc(-n2ccc(C(F)(F)F)n2)cc1Cl)c1ccccc1C(F)(F)F [Example 3]
Ans: 100

---

Measured chromatographic logP, listed per entry.
- Test: logP
- Study Conditions: HCOOH (formic acid)
Respond with the number and no other words.

Previously resolved entries follow.
>>> endpoint_value("O=C(NCC(F)(F)c1ncc(-c2ccnc(F)c2)cc1Cl)c1ccccc1C(F)(F)F")
2.96
>>> endpoint_value("CC(F)(CNC(=O)c1ccccc1C(F)(F)F)c1ncc(-c2ccc(F)nc2)cc1Cl (centres unmarked)")
3.94
>>> endpoint_value("O=C(NCC(F)(F)c1ncc(-c2cc(F)c(F)cn2)cc1Cl)c1ccccc1C(F)(F)F")
3.28
>>> endpoint_value("O=C(NCC(F)(F)c1ncc(-c2cnccc2Cl)cc1Cl)c1ccccc1C(F)(F)F")
2.88
>>> endpoint_value("Cc1ccc(-c2cnc(C(C)(F)CNC(=O)c3ccccc3C(F)(F)F)c(Cl)c2)cn1 (centres unmarked)")
3.79
>>> endpoint_value("CC(F)(CNC(=O)c1cccnc1C(F)(F)F)c1ncc(-c2ccc(C(F)(F)F)nc2)cc1Cl (centres unmarked)")
3.17
>>> endpoint_value("O=C(NCC(F)(F)c1ncc(-c2ccncc2)cc1Cl)c1ccccc1C(F)(F)F")
2
>>> endpoint_value("CC(F)(CNC(=O)c1cccnc1C(F)(F)F)c1ncc(-c2ccc(F)nc2)cc1Cl (centres unmarked)")
2.66

Q: Any idea what its chromatographic logP is? The compound is `O=C(NCCc1ncc(-c2ccc(C(F)(F)F)nc2)cc1Cl)c1ccccc1C(F)(F)F`
Ans: 3.29

Q: Any idea what its chromatographic logP is? The compound is `Cc1ncccc1-c1cnc(C(F)(F)CNC(=O)c2ccccc2C(F)(F)F)c(Cl)c1`
Ans: 1.86

Q: Any idea what its chromatographic logP is? The compound is `O=C(NCCc1ncc(-n2ccnc2)cc1Cl)c1ccccc1C(F)(F)F`
Ans: 1.21

Q: Any idea what its chromatographic logP is? The compound is `O=C(NCCc1ncc(-c2ccc(Cl)nc2)cc1Cl)c1ccccc1C(F)(F)F`
Ans: 3

Q: Any idea what its chromatographic logP is? The compound is `O=C(NCC(F)(F)c1ncc(-c2ccc(Cl)nc2)cc1Cl)c1ccccc1C(F)(F)F`
Ans: 3.21

Q: Any idea what its chromatographic logP is? The compound is `O=C(NCC(F)(F)c1ncc(-c2ccc(C(F)(F)F)nc2)cc1Cl)c1ccccc1C(F)(F)F`
Ans: 3.42

Q: Any idea what its chromatographic logP is? The compound is `O=C(NCC(F)(F)c1ncc(-c2ccc(F)cn2)cc1Cl)c1cccnc1C(F)(F)F`
Ans: 2.57

Q: Any idea what its chromatographic logP is? The compound is `O=C(NCCc1ncc(-n2cncn2)cc1Cl)c1ccccc1C(F)(F)F`
Ans: 2.06

Q: Any idea what its chromatographic logP is? The compound is `O=C(NCC(F)(F)c1ncc(-c2ccc(Cl)nc2Cl)cc1Cl)c1ccccc1C(F)(F)F`
Ans: 3.68

---

- Test: logP
- Study Conditions: HCOOH (formic acid)
Recorded Metric: chromatographic logP
Respond with the number and no other words.

Previously resolved entries follow.
>>> endpoint_value("CC(C)Oc1ccc(-c2cnc(C(F)(F)CNC(=O)c3ccccc3C(F)(F)F)c(Cl)c2)cn1")
4.15
>>> endpoint_value("O=C(NCC(F)(F)c1ncc(-c2ccc(OCC(F)(F)F)nc2)cc1Cl)c1ccccc1C(F)(F)F")
3.94
>>> endpoint_value("O=C(NCC(F)(F)c1ncc(-c2ccnc(Cl)c2)cc1Cl)c1ccccc1C(F)(F)F")
3.17

Next, consider the following compound.
Q: Any idea what its chromatographic logP is? The compound is CC(F)(CNC(=O)c1ccccc1C(F)(F)F)c1ncc(-c2cncc(F)c2)cc1Cl (stereo not shown)
Ans: 2.99

---

Measured mortality at 20 ppm, listed per entry.
- System: Cooperia curticei
- Test: microbe, parasite or virus in culture
- Study Conditions: 120 h, read-out: activity (larval mortality)
- Procedure: Cooperia curticei-Test (COOPCU) Solvent: dimethyl sulfoxide To produce a suitable preparation of active compound, 10 mg of active compound are dissolved in 0.5 ml solvent, and the concentrate is diluted with “Ringer's solution” to the desired concentration. […] After 5 days percentage of larval mortality is recorded, 100% efficacy means all larvae are killed; 0% efficacy means no larvae are killed.
Lab book: enter the figure in %, no units written.

Previously resolved entries follow.
>>> endpoint_value("O=C(NCC(F)(F)c1ncc(-c2ccc(OCC(F)(F)F)nc2)cc1Cl)c1ccccc1C(F)(F)F [Example 20]")
100
>>> endpoint_value("Cc1occc1-c1cnc(C(F)(F)CNC(=O)c2ccccc2C(F)(F)F)c(Cl)c1 [Example 9]")
100

Q: Any idea what its mortality at 20 ppm is? The compound is O=C(NCC(F)(F)c1ncc(-c2ccnc(F)c2)cc1Cl)c1ccccc1C(F)(F)F [Example 23]
Ans: 100

---

- Test: physchem
# label = fulfilled if chromatographic logP < 3 else not fulfilled

Reference set, count: 4
>>> class("O=C(NCC(F)(F)c1ncc(-c2cncc(F)c2)cc1Cl)c1ccccc1C(F)(F)F")
"fulfilled"
>>> class("O=C(NCCc1ncc(-n2cc(C(F)(F)F)cn2)cc1Cl)c1ccccc1C(F)(F)F")
"not fulfilled"
>>> class("O=C(NCCc1ncc(-n2ccc(C(F)(F)F)n2)cc1Cl)c1ccccc1C(F)(F)F")
"not fulfilled"
>>> class("O=C(NCC(F)(F)c1ncc(-c2cc(Cl)nc(Cl)c2)cc1Cl)c1ccccc1C(F)(F)F")
"not fulfilled"

Q: # TODO verify chromatographic logP < 3 strictly for this molecule: `O=C(NCC(F)(F)c1ncc(-c2cccnc2)cc1Cl)c1ccccc1C(F)(F)F`
Ans: fulfilled

Q: # TODO verify chromatographic logP < 3 strictly for this molecule: `O=C(NCC(F)(F)c1ncc(-c2cncc(Cl)c2)cc1Cl)c1ccccc1C(F)(F)F`
Ans: not fulfilled

Q: # TODO verify chromatographic logP < 3 strictly for this molecule: `O=C(NCCc1ncc(-n2cccn2)cc1Cl)c1ccccc1C(F)(F)F`
Ans: fulfilled

---

- Test system: Cooperia curticei
- Test: microbe, parasite or virus in culture
- Study Conditions: 120 h, read-out: activity (larval mortality)
Recorded Metric: mortality at 20 ppm (%)
Lab book: enter the figure in %, no units written.

>>> endpoint_value("O=C(NCCc1ncc(-n2cccn2)cc1Cl)c1ccccc1C(F)(F)F")
100
>>> endpoint_value("O=C(NCC(F)(F)c1ncc(-c2cnccc2Cl)cc1Cl)c1ccccc1C(F)(F)F")
80
>>> endpoint_value("O=C(NCC(F)(F)c1ncc(-c2cncc(Cl)c2)cc1Cl)c1ccccc1C(F)(F)F")
100

Q: Any idea what its mortality at 20 ppm is? The molecule is `O=C(NCC(F)(F)c1ncc(-c2ccc(F)nc2)cc1Cl)c1ccccc1C(F)(F)F`
Ans: 100
